- test-summary: Ratio of dissociation of enzyme-inhibitor-substrate complex to Ki for chymotrypsin
Listed next: entries and their corresponding Ratio.

>>> experimental_result("CC(C)[C@@H](NC(=O)OCc1ccccc1)P(=O)(Oc1ccc(S(C)(=O)=O)cc1)Oc1ccc(S(C)(=O)=O)cc1")
"707 M⁻¹ s⁻¹"
>>> experimental_result("CCC(NC(=O)OCc1ccccc1)P(=O)(Oc1ccc(Cl)cc1)Oc1ccc(Cl)cc1 (stereo not drawn)")
"< 50 M⁻¹ s⁻¹"
>>> experimental_result("CCC(NC(=O)OCc1ccccc1)P(=O)(Oc1ccc(C(=O)OC)cc1)Oc1ccc(C(=O)OC)cc1 (stereo not drawn)")
"1070 M⁻¹ s⁻¹"
>>> experimental_result("CCC[C@@H](NC(=O)OCc1ccccc1)P(=O)(Oc1ccc(C(=O)OC)cc1)Oc1ccc(C(=O)OC)cc1")
"< 50 M⁻¹ s⁻¹"
>>> experimental_result("COC(=O)c1ccc(OP(=O)(Oc2ccc(C(=O)OC)cc2)[C@H](NC(=O)OCc2ccccc2)C(C)C)cc1")
"< 50 M⁻¹ s⁻¹"
>>> experimental_result("CCCC[C@@H](NC(=O)OCc1ccccc1)P(=O)(Oc1ccc(C(=O)OC)cc1)Oc1ccc(C(=O)OC)cc1")
"< 50 M⁻¹ s⁻¹"
>>> experimental_result("COC(=O)c1ccc(OP(=O)(Oc2ccc(C(=O)OC)cc2)[C@@H](C)NC(=O)OCc2ccccc2)cc1")
"1530 M⁻¹ s⁻¹"

Ratio reported for this compound COC(=O)c1ccc(OP(=O)(Oc2ccc(C(=O)OC)cc2)[C@@H](CC(C)C)NC(=O)OCc2ccccc2)cc1 : < 50 M⁻¹ s⁻¹

The measured values listed here are drawn from ChEMBL document CHEMBL1681697.
